The reported measurements were obtained from paper PMC8809517.

TARGET OR TEST SYSTEM: T1, GFP-9S library array, motif 4 ND N98D;D124P (synthetic construct, N98D;D124P)
T1 chain: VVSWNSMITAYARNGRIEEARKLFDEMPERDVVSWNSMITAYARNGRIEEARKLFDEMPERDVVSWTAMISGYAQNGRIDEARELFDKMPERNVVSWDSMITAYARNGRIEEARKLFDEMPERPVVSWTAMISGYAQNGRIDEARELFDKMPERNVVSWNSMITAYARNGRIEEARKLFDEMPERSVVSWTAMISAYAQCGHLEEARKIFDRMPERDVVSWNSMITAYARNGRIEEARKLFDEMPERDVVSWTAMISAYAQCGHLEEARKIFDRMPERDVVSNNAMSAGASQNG
PROTOCOL DETAILS: high-throughput RNA pulldown from lysate on Ni-NTA beads; HRP: 50 mM Tris pH 8, 150 mM NaCl, 1 mM beta-mercaptoethanol, 50 ug/ml BSA, 3 ug/ml yeast RNA, 0.5% heparin; ITC and FP: Tris pH 8, 200 mM KCl, 5% glycerol; MST: 50 mM Tris pH 8, 200 mM NaCl, 1 mM DTT, BSA, heparin, 0.05% Tween 20
RUN CONDITIONS: tags: N-terminal His-eGFP; label: 5' IRDye 800CW
METRIC: Kd (nM)

BINDER	METRIC	UNIT TEXT	MEASURED
AUUAUACGUGA (ssRNA) [IR-rpoA-U]	Kd	nM	501
AUUAAACGUGA (ssRNA) [IR-rpoA-A]	Kd	nM	341
